These data points were gathered from paper PMC8233901.

Tested on: horse erythrocytes
Experiment: Hemolytic activity (hemoglobin release from erythrocytes)
Type: cell-based
Conditions: D-amino acid lipopeptides, 150 µM, TRIS buffer pH 7.2, 1 h, 37 °C, relative to melittin, ± confidence interval (α = 0.05)
Where a SMILES comes first, the peptide text is derived from it. [ ]: non-standard residue; d: D form. The star is where a group is joined. Butyryl = CCCC(=O)*
Reported Hemolysis (%) 150 µM values follow for various molecules
Reply with the number and its unit after it.

Some molecules with known Hemolysis (%) 150 µM results, for comparison:
[
  {
    "MOLECULE": "CCCCCCCCCCCC(=O)NCCCC[C@H](NC(=O)[C@H](CC(C)C)NC(=O)[C@@H](NC(=O)[C@H](CCCCN)NC(=O)[C@H](CCCCN)NC(=O)[C@@H](Cc1ccccc1)NC(=O)[C@H](CC(C)C)NC(=O)[C@H](CCCCN)NC(=O)[C@H](CCCCN)NC(C)=O)[C@@H](C)CC)C(=O)N[C@@H](Cc1ccc(O)cc1)C(=O)N[C@@H](CC(C)C)C(N)=O",
    "RESULT": "100 ± 2%"
  },
  {
    "MOLECULE": "CCCC(=O)NCCCC[C@H](NC(=O)[C@H](CCCCN)NC(=O)[C@H](CC(C)C)NC(=O)[C@@H](NC(=O)[C@H](CCCCN)NC(=O)[C@H](CCCCN)NC(=O)[C@@H](Cc1ccccc1)NC(=O)[C@H](CC(C)C)NC(=O)[C@H](CCCCN)NC(=O)[C@H](CCCCN)NC(C)=O)[C@@H](C)CC)C(=O)N[C@@H](CC(C)C)C(N)=O [BP475, Ac-KKLfKKILKK(COC3H7)L-NH2] (Ac-KKL[dF]KKILKK(Butyryl)L-NH2)",
    "RESULT": "0 ± 0%"
  }
]

Note: attention shifts to another entry.
Qu. Determine from records and report Hemolysis (%) 150 µM for CCCC(=O)NCCCC[C@H](NC(=O)[C@@H](NC(=O)[C@H](CCCCN)NC(=O)[C@H](CCCCN)NC(=O)[C@@H](Cc1ccccc1)NC(=O)[C@H](CC(C)C)NC(=O)[C@H](CCCCN)NC(=O)[C@H](CCCCN)NC(C)=O)[C@@H](C)CC)C(=O)N[C@@H](CCCCN)C(=O)N[C@@H](Cc1ccc(O)cc1)C(=O)N[C@@H](CC(C)C)C(N)=O [BP474, Ac-KKLfKKIK(COC3H7)KYL-NH2] (Ac-KKL[dF]KKIK(Butyryl)KYL-NH2)
Ans. 0 ± 0%
